Please respond with reported pIC50 for every item in the list.
- Tested on: MIA PaCa-2
- test-protocol: Cytotoxicity against human MIAPaCa2 cells after 72 hrs by MTT assay
- Assay type: functional, cell-based
- conditions: MIA PaCa-2, 72 h
The scale used: pIC50 is minus the common logarithm of the concentration in molar units.

// query Report pIC50 for CCCCCCCCCCCCNc1ccc(O)cc1 please.
// result 5.00

// query Report pIC50 for CC1=C(/C=C/C(C)=C/C=C/C(C)=C/C(=O)Nc2ccc(O)cc2)C(C)(C)CCC1 [FENRETINIDE] please.
// result 5.15

====

- Tested on: MIA PaCa-2
- test-protocol: Growth inhibition of human MIAPaCa2 cells at 10 uM after 72 hrs by MTT assay relative to control
- Assay type: functional
- conditions: MIA PaCa-2, 72 h, read-out: GI
Please respond with reported inhibition of growth at 10 µM for every item in the list.
Expressed in %, but write only the number.

// query MIA PaCa-2 / inhibition of growth at 10 µM / CC1=C(/C=C/C(C)=C/C=C/C(C)=C/C(=O)O)C(C)(C)CCC1 : value?
// result 18

// query MIA PaCa-2 / inhibition of growth at 10 µM / CCCCCCCCCCNc1ccc(O)cc1 : value?
// result 55

// query MIA PaCa-2 / inhibition of growth at 10 µM / CCCCCCCCCCCC(=O)Nc1ccc(O)cc1 : value?
// result 0

// query MIA PaCa-2 / inhibition of growth at 10 µM / CCCCCCCCCC(=O)Nc1ccc(O)cc1 : value?
// result 0

// query MIA PaCa-2 / inhibition of growth at 10 µM / CCCCCCCCCCCCNc1ccc(O)cc1 : value?
// result 50
